Test system: Escherichia coli TOP10;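 note: peptides expressed intracellularly from a pBAD plasmid library in pooled LB shake-flask culture, induced with 0.3% L-arabinose, DNA abundance read by NGS, three biological replicates, DESeq2 with apeglm shrinkage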
Assay: shrunken log2 fold change of peptide-encoding DNA abundance (4.5 h post-induction vs induction); higher = less antimicrobial activity (less host growth inhibition)
Conditions: time post-induction: 4.5 h; library: site-saturation at positions 5, 18, 19, 20
Assign true (1) to entries whose shrunken log2 fold change meets or exceeds -0.009; assign false (0) to the rest.

Some entries whose results are on file:
{"SEQUENCE CHAIN": "RRIRVRPPRLPRPRPRPTFCPRP", "CLASSIFICATION": "false (0)"}
{"SEQUENCE CHAIN": "RRIRDRPPRLPRPRPRPHKYPRP", "CLASSIFICATION": "false (0)"}
{"SEQUENCE CHAIN": "RRIRERPPRLPRPRPRPEHHPRP", "CLASSIFICATION": "false (0)"}
{"SEQUENCE CHAIN": "RRIRMRPPRLPRPRPRPFGSPRP", "CLASSIFICATION": "true (1)"}
{"SEQUENCE CHAIN": "RRIRIRPPRLPRPRPRPGWPPRP", "CLASSIFICATION": "true (1)"}
{"SEQUENCE CHAIN": "RRIRYRPPRLPRPRPRPMANPRP", "CLASSIFICATION": "false (0)"}
{"SEQUENCE CHAIN": "RRIRRRPPRLPRPRPRPYSFPRP", "CLASSIFICATION": "false (0)"}
{"SEQUENCE CHAIN": "RRIRARPPRLPRPRPRPHCQPRP", "CLASSIFICATION": "true (1)"}

Threshold query (shrunken log2 fold change >= -0.009) on `RRIRERPPRLPRPRPRPKMNPRP`
false (0)

Values from the supplement of paper PMC9112550
